# test.target: T1, human soluble urokinase plasminogen activator receptor (hsuPAR) (human, UniProt Q03405 23-303, limits assumed)
# T1 construct: also called human suPAR; rhuPAR-His
# T1 sequence (Q03405 23-303 limits assumed): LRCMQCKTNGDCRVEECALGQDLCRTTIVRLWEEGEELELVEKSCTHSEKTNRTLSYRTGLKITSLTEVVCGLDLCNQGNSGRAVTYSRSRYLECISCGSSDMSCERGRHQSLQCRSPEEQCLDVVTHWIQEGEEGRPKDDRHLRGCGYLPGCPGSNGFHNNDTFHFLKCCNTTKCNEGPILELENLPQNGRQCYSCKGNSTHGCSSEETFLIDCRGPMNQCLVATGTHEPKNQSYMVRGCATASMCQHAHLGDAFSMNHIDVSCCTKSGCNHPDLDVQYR
# experiment.description: BLI (Octet) off-rate screen of scFv
quantity.name: koff (s⁻¹)
Return type: number; implicit unit s⁻¹.

Task item: Fill in reported koff for this entry: suPAR_DB01_F03 (scFv, V domains shown, Screened as scFv) VH: QVQLVQSGAEVKKPGASVKVSCKASGYTFTSYYMHWVRQAPGQGLEWMGWIDHENGNTIYDQKFQGRVTMTRDTSTSTVYMELSSLRSEDTAVYYCARGYDVDWFVYWGQGTLVTVSS VL: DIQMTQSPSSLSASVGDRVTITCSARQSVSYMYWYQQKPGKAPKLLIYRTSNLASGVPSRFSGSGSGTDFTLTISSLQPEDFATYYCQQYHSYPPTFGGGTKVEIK
Reply: 0.00251

Task item: Determine from records and report koff for suPAR_DB01_G04 (scFv, V domains shown, Screened as scFv) VH: QVQLVQSGAEVKKPGASVKVSCKASGYTLSGYYMHWVRQAPGQGLEWMGWIDPNSGGTKYAQKFQGRVTMTRDTSTSTVYMELSSLRSEDTAVYYCARGYDVDWFVYWGQGTLVTVSS VL: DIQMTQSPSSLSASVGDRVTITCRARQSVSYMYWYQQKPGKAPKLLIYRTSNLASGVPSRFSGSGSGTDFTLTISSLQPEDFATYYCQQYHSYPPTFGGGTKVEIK
Reply: 0.00364

Task item: Supply koff value. Item: suPAR_DB02_A12 (scFv, V domains shown, Screened as scFv) VH: QVQLVQSGAEVKKPGASVKVSCKASGYTFTNYYMHWVRQAPGQGLEWMGWIDHENGSTIYAQKFQGRVTMTRDTSTSTVYMELSSLRSEDTAVYYCARGYDMDWFVYWGQGTLVTVSS VL: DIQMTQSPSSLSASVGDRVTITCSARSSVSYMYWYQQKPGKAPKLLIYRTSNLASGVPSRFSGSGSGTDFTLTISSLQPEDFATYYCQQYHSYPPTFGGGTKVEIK
Reply: 0.0017
